RUN_DESCRIPTION: Oral bioavailability in BALB/c mouse at 10 mg/kg measured up to 24 hrs by UPLC-MS/MS analysis
Type: ADME, organism-based
TEST_SETTINGS: in vivo

| COMPOUND_STRING | bioavailability (%) |
| --- | --- |
| O=S(=O)(CCC(F)(F)F)N[C@H]1CC[C@H](Nc2ncc3c(-c4ccccn4)n[nH]c3n2)CC1 | 44 |
